ASSAY_METHOD_TEXT: Selectivity index, ratio of IC50 for African green monkey Vero cells to IC50 for Trypanosoma cruzi IRHOD/CO/2008/SN3 epimastigotes
Type: toxicity
TEST_SETTINGS: read-out: Ratio IC50
Entry flag: T if selectivity ratio reaches 70; F if it does not.

Worked examples, 5 compounds total:
SMILES_STRING | ASSIGNED_CLASS
O=S(=O)(c1ccc(Br)cc1)n1cnc2ccccc21 | F
O=S(=O)(c1cccc(C(F)(F)F)c1)n1cnc2ccccc21 | F
CC(C)(C)c1ccc(S(=O)(=O)n2cnc3ccccc32)cc1 | F
O=S(=O)(c1ccc(Cl)cc1)n1cnc2ccccc21 | F
Cc1ccc(S(=O)(=O)n2cnc3ccccc32)cc1 | F

[in] Is selectivity ratio at least 70? Consider `O=S(=O)(c1ccc(C(F)(F)F)cc1)n1cnc2ccccc21`
[out] T

[in] Confirm if selectivity ratio reported for the compound `CC(=O)Nc1ccc(S(=O)(=O)n2cnc3ccccc32)cc1` is 70 or above.
[out] F

[in] Is the recorded value of selectivity ratio equal to or greater than 70 for this compound? `O=[N+]([O-])c1cccc(S(=O)(=O)n2cnc3ccccc32)c1`
[out] T

[in] Test whether the compound `O=[N+]([O-])c1ccc(S(=O)(=O)n2cnc3ccccc32)cc1` records selectivity ratio of 70 or higher.
[out] T

[in] Confirm if selectivity ratio reported for the compound `O=S(=O)(c1ccccc1)n1cnc2ccccc21` is 70 or above.
[out] T

[in] Is selectivity ratio for `Cc1cc(C)c(C)c(S(=O)(=O)n2cnc3ccccc32)c1C` at or above 70?
[out] T

[in] Identify whether the reported selectivity ratio of the following compound is 70 or greater: `CC(=O)c1ccc(S(=O)(=O)n2cnc3ccccc32)cc1`
[out] F

[in] # bool: selectivity ratio of `O=[N+]([O-])c1ccccc1S(=O)(=O)n1cnc2ccccc21` >= 70
[out] F

* * *

Activity values for the compounds below.
Test system: Trypanosoma cruzi
ASSAY_METHOD_TEXT: Inhibition of PFK in Trypanosoma cruzi IRHOD/CO/2008/SN3 epimastigotes assessed as change in pyruvate excretion at IC25 after 96 hrs by 1H NMR analysis relative to control
Design: scale not given: the % may be the effect or the level left
Your answer should be a plain number; it is taken to be in %.

Below, 4 compounds whose answers are already recorded.
SMILES_STRING | Activity (%)
CC(=O)Nc1ccc(S(=O)(=O)n2cnc3ccccc32)cc1 | 2.38
O=S(=O)(c1ccc(C(F)(F)F)cc1)n1cnc2ccccc21 | 10.6
Cc1cc(C)c(C)c(S(=O)(=O)n2cnc3ccccc32)c1C | 10.9
O=[N+]([O-])c1cccc(S(=O)(=O)n2cnc3ccccc32)c1 | -30.2

So for `O=S(=O)(c1ccccc1)n1cnc2ccccc21` , the logged Activity turned out to be -13.4

* * *

ASSAY_METHOD_TEXT: Selectivity index, ratio of IC50 for African green monkey Vero cells to IC50 for Trypanosoma cruzi IRHOD/CO/2008/SN3 amastigotes infected in African green monkey Vero cells
Assay type: toxicity
TEST_SETTINGS: read-out: Ratio IC50
Quick rule: selectivity ratio of at least 40 means YES, below that means NO.

SMILES_STRING | ASSIGNED_CLASS
O=S(=O)(c1ccc(Br)cc1)n1cnc2ccccc21 | NO

[in] Can `Cc1cc(C)c(C)c(S(=O)(=O)n2cnc3ccccc32)c1C` be said to have selectivity ratio at or above 40?
[out] NO

[in] Does selectivity ratio meet or surpass 40 for `CC(=O)Nc1ccc(S(=O)(=O)n2cnc3ccccc32)cc1` ?
[out] YES

[in] Would you say `O=S(=O)(c1ccc(C(F)(F)F)cc1)n1cnc2ccccc21` shows selectivity ratio at minimum 40?
[out] NO

[in] Say whether `O=S(=O)(c1ccccc1)n1cnc2ccccc21` shows selectivity ratio of 40 or more.
[out] YES

* * *

ASSAY_METHOD_TEXT: Inhibition of Trypanosoma cruzi apoenzyme form of PFK
We begin with a simple list: items and their reported pIC50.

Please review the following examples before continuing.
SMILES_STRING | pIC50
Cc1cc(NS(=O)(=O)c2ccc(NC(=O)Cc3ccc4ccccc4c3)cc2)no1 | 3.31
CN(C)c1cccc(NS(=O)(=O)c2ccc(NC(=O)Cc3ccc(Cl)c(Cl)c3)cc2)c1 | 4.11
Cc1cc(NS(=O)(=O)c2ccc(NC(=O)Cc3ccc(Cl)cc3)cc2)no1 | 3.21
Cc1ccc(S(=O)(=O)n2cnc3ccccc32)cc1 | 4.38
Cc1cc(NS(=O)(=O)c2ccc(NC(=O)Cc3ccc(C)c(C)c3)cc2)no1 | 3.81

Alright, here's another compound for you.
Lab note: `Cc1cc(NS(=O)(=O)Cc2ccc(NC(=O)Cc3ccc(Cl)c(Cl)c3)cc2)no1` gave pIC50 of 3.66

* * *

System: Trypanosoma cruzi
ASSAY_METHOD_TEXT: Potency index, ratio benznidazole IC50 to test compound IC50 for anti-trypanosomal activity against Trypanosoma cruzi IRHOD/CO/2008/SN3 epimastigotes
Assay type: functional
Reported Ratio IC50 values for the following compounds.

SMILES_STRING | Ratio IC50
Cc1cc(C)c(C)c(S(=O)(=O)n2cnc3ccccc32)c1C | 3 - 5
O=[N+]([O-])c1ccc(S(=O)(=O)n2cnc3ccccc32)cc1 | 3 - 5
CC(C)(C)c1ccc(S(=O)(=O)n2cnc3ccccc32)cc1 | 3 - 5

Given item `O=[N+]([O-])c1ccccc1S(=O)(=O)n1cnc2ccccc21` , the value recorded as its Ratio IC50 is 3 - 5

// Ratio IC50 lookup, compound = `O=[N+]([O-])c1cccc(S(=O)(=O)n2cnc3ccccc32)c1` , result: 3 - 5

* * *

ASSAY_METHOD_TEXT: Inhibition of Trypanosoma cruzi apoenzyme form of PFK
MEASUREMENT_KIND: pIC50
Form rule: numeric answer, no unit written next to it.

These solved cases illustrate the format of a correct answer.
SMILES_STRING | pIC50
O=C(Cc1ccc(F)c(Cl)c1)Nc1ccc(S(=O)(=O)Nc2nncs2)cc1 | 2.23
Cc1cc(NS(=O)(=O)c2ccc(C(=O)NCc3ccc(Cl)c(Cl)c3)cc2)no1 | 3.51
Cc1cc(NS(=O)(=O)c2ccc(NC(=O)Cc3cccc(Cl)c3)cc2)no1 | 3.46

get_value(item= `Cc1cc(NS(=O)(=O)c2ccc(NCCc3ccc(Cl)c(Cl)c3)cc2)no1` , readout=pIC50) returns 4.21

Item: `CC(=O)Nc1ccc(S(=O)(=O)n2cnc3ccccc32)cc1` | pIC50: 3.86

* * *

System: Trypanosoma cruzi
ASSAY_METHOD_TEXT: Inhibition of PFK in Trypanosoma cruzi IRHOD/CO/2008/SN3 epimastigotes assessed as change in L-alanine excretion at IC25 after 96 hrs by 1H NMR analysis relative to control
Parameters: scale not given: the % may be the effect or the level left
MEASUREMENT_KIND: Activity (%)
Reply with just the number (in %).

SMILES_STRING | MEASUREMENT_KIND | MEASURE_UNIT | MEASURED_NUMBER
CC(=O)Nc1ccc(S(=O)(=O)n2cnc3ccccc32)cc1 | Activity | % | 6.8
Cc1cc(C)c(C)c(S(=O)(=O)n2cnc3ccccc32)c1C | Activity | % | 10.4
O=S(=O)(c1ccc(C(F)(F)F)cc1)n1cnc2ccccc21 | Activity | % | 9.92
O=S(=O)(c1ccccc1)n1cnc2ccccc21 | Activity | % | -3.24

With Trypanosoma cruzi as the test system, `O=[N+]([O-])c1cccc(S(=O)(=O)n2cnc3ccccc32)c1` showed Activity of -22.7

* * *

Tested on: Trypanosoma cruzi
ASSAY_METHOD_TEXT: Inhibition of PFK in Trypanosoma cruzi IRHOD/CO/2008/SN3 epimastigotes assessed as change in acetate excretion at IC25 after 96 hrs by 1H NMR analysis relative to control
Design: scale not given: the % may be the effect or the level left
Label T when Activity >= 10%; otherwise F.

SMILES_STRING | TARGET_ENTITY | ASSIGNED_CLASS
CC(=O)Nc1ccc(S(=O)(=O)n2cnc3ccccc32)cc1 | Trypanosoma cruzi | T

[in] Answer whether Activity of `O=S(=O)(c1ccc(C(F)(F)F)cc1)n1cnc2ccccc21` is greater than or equal to 10%.
[out] T

[in] Tell me whether Activity is at least 10% here: `O=[N+]([O-])c1cccc(S(=O)(=O)n2cnc3ccccc32)c1`
[out] F

[in] Dear colleague, could you confirm whether `Cc1cc(C)c(C)c(S(=O)(=O)n2cnc3ccccc32)c1C` has Activity at or above 10%?
[out] T

[in] Item `O=S(=O)(c1ccccc1)n1cnc2ccccc21` with Activity of 10% or above?
[out] F

* * *

Test system: Trypanosoma cruzi
ASSAY_METHOD_TEXT: Inhibition of PFK in Trypanosoma cruzi IRHOD/CO/2008/SN3 epimastigotes assessed as change in succinate excretion at IC25 after 96 hrs by 1H NMR analysis relative to control
Design: scale not given: the % may be the effect or the level left
compounds and their reported Activity

Worked cases, Activity given:
SMILES_STRING | TARGET_ENTITY | Activity
O=[N+]([O-])c1cccc(S(=O)(=O)n2cnc3ccccc32)c1 | Trypanosoma cruzi | -33.2%
O=S(=O)(c1ccc(C(F)(F)F)cc1)n1cnc2ccccc21 | Trypanosoma cruzi | -7.22%
CC(=O)Nc1ccc(S(=O)(=O)n2cnc3ccccc32)cc1 | Trypanosoma cruzi | 28.3%
Cc1cc(C)c(C)c(S(=O)(=O)n2cnc3ccccc32)c1C | Trypanosoma cruzi | -7.22%

Turning now to a further record.
The recorded Activity for `O=S(=O)(c1ccccc1)n1cnc2ccccc21` is -16%

This collection of values is drawn from ChEMBL document CHEMBL4480385.
